Data provenance is PubChem BioAssay.

Assay Text: MELAS cybrid and Rieske KO viability enhancers – cell-based, MELAS cybrids, Rieske KO mouse fibroblasts, CellTiter-Glo, primary screen (AID 1508586); also: test concentration not given here
Study Conditions: Rieske KO mouse fibroblast survival, low glucose, CellTiter-Glo 72 h
// NB: equality with -0.3 counts as Criterion not met; only z-score strictly below is Criterion met

Compound	Class Name
CN(C)CCOc1ccc(C(=C(CCCl)c2ccccc2)c2ccccc2)cc1	Criterion not met
COc1ccc(-c2cc(=O)c3c(O)cc(OC4OC(COC5OC(C)C(O)C(O)C5O)C(O)C(O)C4O)cc3o2)cc1O (stereo unspecified)	Criterion not met
C[C@H]1NC(=O)[C@@H]2C[C@H](NC(=O)c3cnn(-c4ccccc4)c3C(F)(F)F)CN2C1=O	Criterion met
CC1(C)C(OC2OC(C(=O)O)C(O)C(O)C2OC2OC(C(=O)O)C(O)C(O)C2O)CC[C@@]2(C)[C@H]1CC[C@]1(C)[C@H]2C(=O)C=C2[C@H]3C[C@@](C)(C(=O)O)CC[C@]3(C)CC[C@]21C (stereo partly specified)	Criterion met
COc1ccc(C[C@@H]2NC(=O)[C@H]3CN(C(=O)Oc4ccc(Cl)cc4)CCN3C2=O)cc1	Criterion not met
O=C(NCCOc1cccnc1)c1ccc2ncsc2c1	Criterion met
CCOC(=O)c1ccc(N2NC(=O)C(=Cc3ccc([N+](=O)[O-])o3)C2=O)cc1	Criterion met
O=CC(O)C(O)C(O)CO (stereo unspecified)	Criterion not met
CCn1cnc(NC(=O)N(C)Cc2ccc(OC)cc2)n1	Criterion met
O=C(O)c1ccccc1C(=O)O	Criterion met
O=C(Nc1c[nH]c2ccccc12)c1cc(-c2ccc(F)cc2)n[nH]1	Criterion not met
CCOC(=O)C(CCc1ccccc1)NC1CSC(c2cccs2)CN(CC(=O)O)C1=O (stereo unspecified)	Criterion not met
c1ccc2c(c1)OCC(CNc1ncnc3nc[nH]c13)O2 (stereo unspecified)	Criterion not met
CC1(C)SC2C(NC(=O)C(NC(=O)N3CCNC3=O)c3ccccc3)C(=O)N2C1C(=O)O (stereo unspecified)	Criterion not met
CC1(C)OC2C[C@H]3[C@@H]4CCC5=CC(=O)CC[C@]5(C)[C@]4(F)C(O)C[C@]3(C)[C@@]2(C(=O)CCl)O1 (stereo partly specified)	Criterion not met
Nc1ncn(C2O[C@H](CO)[C@@H](O)[C@H]2O)c(=O)n1 (stereo partly specified)	Criterion not met
CCCc1ccc(OCC(=O)N(Cc2nc(-c3cccnc3)no2)C(C)C)cc1	Criterion not met
CC(C)CC(NC(=O)CNC(=O)c1cc(Cl)ccc1Cl)B(O)O (stereo unspecified)	Criterion met
OCCN1CCN(CC/C=C2/c3ccccc3Sc3ccc(Cl)cc32)CC1	Criterion not met
CC(C)Cn1nc(C(=O)N2CCCC2)c2c1CCC(NCCc1cccs1)C2 (stereo unspecified)	Criterion not met
